# MEASUREMENT NOTES: soluble on expression in E. coli; label from the status in PepcDB or PDB records

SEQ STRING	soluble on expression in E. coli
MGSDKIHHHHHHVSKPLTGIHILVTRPSHQAGGLAGKIRAAGGEPCLFPVLEIQDISDPRPLLELIERLDEFYLAIFVSPNAVNKAMSVICAKRALPSDLKIATVGQGTARTLRRFGVSGVIVPAVRFDSEALLDMAELDRINVAGKRIIIFRGDNGRELLGETLRKRGASVEYAECYRRIRPEAEIGPLLAAWTRGEMNGVTVTSSEGLRNLWEMVGDSGRTWLENTPLFVSHERIAGVARKLGFNRVIVTAAGDDGLVAGLQDYFSGHMG	not soluble
MAHHHHHHMFKQRDNEYHPPMTVDPSGGGVTTSAGVFGEVGMGNVASPFLDGPAAVAGSRKRGRDIRSLDRFRAVVYGEDGFRRLHAMVARNPVLMYPPDGIEAARARVMVRKAELQSQLRSALGHREHNRNPADNGDDDVFALFEARRRAESDVHPATEGEEVPRQPASEHAPLPSSLASIRQDEELATYHHKQLDSYLRLLYEFNHATFVKLPMEDTLRLLSRCGKEAVAHIVEYETQVRLRRQSRIRDLNELRQEQAALEERRLAIDDAEQARLVQSAELRQAELDLELDNGVVKAEPPDDGSADEDVKVILETSSSSVHFASLPAGDSPEENMDGIVMAVEDEGIQYT	not soluble

----------
# MEASUREMENT NOTES: soluble on expression in E. coli; label from the status in PepcDB or PDB records
QUANTITY NAME: soluble on expression in E. coli

Consider the reported soluble on expression in E. coli for these sequences:
SEQ STRING	soluble on expression in E. coli
LLSPPIALKPLDSSAKWRIIYWNPNGCDKTCLKQLNMLGRVRLSFGRKLYQVDEWLLLSNKDSLIAEELKPILKEQDIHVAALSLTEMSKLSTLYPEAKIFIANPDNYLILSYQPGCNPGDIYKDLKLLLNTTE	not soluble
MGSDKIHHHHHHMSVVDFSKLYPDNRQEGETVLRQAQLVMLRMLKIIDYICRKHDISYWMCSGTLLGAVRHKGFIPWDDDLDICMIREDYERFVEIAVNEFPEDMMLQTRETDPHYHYLPLPCKVRDKKSFILSPGYEDEECEKGLFIDIFPMDRYHKQKLPFMFEKMVKVYNTFICKSLDAIYFKDESIDKKILAFFHPVFHKLVLQYMKFAKKLIDKNRGLGTDCRLGHGFDTLWKRYLRFDDIFPVVEIDFEDSKFFAPHRPDVYLTTLYGPNYMTPPPEKQRLAAQHAHEIKPII	not soluble
MGSDKIHHHHHHMNIQQLRYVVAIANSGTFREAAAKLFVSQPSLSVAVRDLETELGFQIFTRTTTGAVLTNQGMTFYENALEVVKSFDSFEKQFSQSEATEQEFSIASQHYDFLPPLITAFSKCNDNFSYFRIFESTTIRILDEVAQGNSEIGIIYINSQNKKGLLQRLDKLGLEFVELIPFKTHIYLGKDHPLASKTSLIMTDLEGLPTVRFTQDRDDYRYYSENFVEVLDSSVTYNVTDRATLNGILERTQAYATGSGFLDSRSVNGITVIPLEDHLDNQMIYIKRKDRNLSQMALKFVAVMEEYFKGFNS	not soluble
MSLAAEKLRLVADPWPPFTDALLLNGGLATDIVNTALKRAGYTTLYEQVPWARALLGLSEGRHDVLINAWFSEDRKKIGQFSAEYLLNRIRFIKRKESPIDALTHEQLHHYLIAVVRGYAYSPAFDSDVLLKKVPVQNFSTAVRMLAAERVDLTLEDEYVARYNLALEANEVRARVEFLPGSLSENSLHILVSLKNPHHAKIVADFDREIAAMKADGTYEELLRLHGLQGPPEEGHHHHHH	soluble
SEDKKKKRSPKPCLTQQAQAPGTLRRVPVPTSHSGSLALGLPHLPSPKQRAKFKRAGKEKCRPVLAGGGGGSAGTPLQHSFLTEVTDVYEMEGGLLNLLNDFHSGRLQAFGKECSFEQLEHVREMQEKLARLHFSLDVCGEEEDEEEEEDGVTEGLPEEQKKTMADRNLDQLLSNLEDLSNSIQKLHLAENAEPEDQPAA	soluble
MGSDKIHHHHHHMIDNIMAILEPVIGRTIKRKISTMSGKKLPFIAGHKLLYTCNLRCDMCPFWRRKDEKLLSLEEEIKMMDSLASAGVSFMGFEGGEPLLRNDLEDILKESHKRFHTSLVTNGWLLKGRASSISRYLDYLFVSIDGRKETHDKQRGVPSSFDHAIEGIKEAKKYVPVAMSTTITTNNMDDIKYVVNLAEELGIGVNIQVSYDYSTADKLSPDRKKLYDLLLDLKKMKEDGAPIVNSKEYFDTLVNSWYYGIPWACKPWSTVNIDPQGRIVMPCYVLNEYAGEKKVWEIDIKELWNTYDWKPYESCNKCSLSCYLEPSIFSWRKPSMVSERIFGSIADYIASIF	not soluble
MEHEGLLVAEREIEVNNYDIDAMGIVSNIVYIRWFEDLRTIFINEYMTFSEMMKEHISPILMKTEIEYKVPITIHDKPVGRCWFVKAGRMKWVFKFEITSGDKVHCIGQQTGGFLDLERQRITKMPLEHHHHHH	not soluble
MGSDKIHHHHHHMKLPANQEKNQPVPVVKPSSTLEEINQNAAGIDLGSGEHWVCVPPDRADKNVRRFGCFTPDLIAMADWLKECRINTVAMEATGVYWIPVFQVLEAKGFEVKLVNAHHVKTVPGRKTDVLDCQWLQKLHTYGLLSGSFRPEDQVCVLRSYIRQRDTLIKSASAHIQRMQKALIQMNLHLHKVISDVTGLTGMKIIKAIVAGEQDPQVLASLKDPHIKSSTADIAASLTGDYRREHLFVLQQELTLYEIYQQQIIAVDAEIEKCLAYA	not soluble

Please report soluble on expression in E. coli for every entry that follows.
1. MRGSHHHHHHDDYDGIPNLTAVQISPNADPALGLEYPVRPPVPGAGGLNASAKGIHSIAIGATAEAAKGAAVAVGAGSIATGVNSVAIGPLSKALGDSAVTYGAASTAQKDGVAIGARASTSDTGVAVGFNSKADAKNSVAIGHSSHVAANHGYSIAIGDRSKTDRENSVSIGHESLNRQLTHLAAGTKDTDAVNVAQLKKEIEKTQENTNKRSAELLANANAYAD
2. MRWKRTLQLLDVHCEGEIGRVVTGGAPKIPGNTVAEQLHWMNTDPQGEALRRFLTLEPRGTPMGSVDLLLPPKHPDAHAAFVILQPDQAHASSGSNSICATTALLESGMVEMQEPETVIILETAAGLVKATATCRDGRCEKVKLTMVPSFVHELDVSIDTPEWGRVTMDISYGGIFYALVDVRQIGLTIEKANAAKLVAAGMTLKDLVNREMTVVHPEIPAISGVAYVMFRDVDADGSIRTCTTMWPGRADRSPCGTGNSANLATLYARGKVKVGDEYKSRSIIGSEFDVGLSAVTEVAGRPAVIPTIAGRGFTFGLHQVGLDPFDPLGDGFAMTDVWGPEAGNI

1. soluble
2. not soluble

Batch of 2 sequences: report soluble on expression in E. coli for each.
1. SDERHKTDIAPISDKVLDAWEKVKFYQYKFKDAVDEKGEEARYHFGVIAQQIVKVFEDEGLSAFDYGLVGYDEWEATEDEYDSEGNLVEKGREAGNIYSIRPTECQWLEMACMRRKLERLSLEHHHHHH
2. MSLKLLAIDSATQAATCAVMDDDKLLGEITFNYKKQHSVILMSMIDDMLNTVNLKVEDLDGFVVSKGPGSFTGLRIGMSIVKGLSEGSKKPFVSVSSLDALAYNMAYTPGIICPVLDALRDNVYTALYTFEGNSLKRLTEYDAIHITELIELLKGYDSQVTFIGDAVYKFRNFFDENVENVQFAPAHLNLVRSSSLCELGMELLKSGVKDDLITSAPIYIRKSQAEREYEKRTGMSIDDEGHHHHHH

soluble
soluble
